Assay: Cytotoxicity against human HuH7 cells by colorimetric proliferation assay
Assay type: cell-based, Huh-7
Each item that follows carries a reported CC50.
QUANTITY: CC50 (µM)

{"SAMPLE_SMILES": "C#Cc1csc(-c2cc(O[C@H]3CCN4C(=O)N(C)CCCC/C=C/[C@@H]5C[C@@]5(C(=O)NS(=O)(=O)C5(C)CC5)NC(=O)[C@@H]4C3)c3ccc(OC)c(C)c3n2)n1", "QUANTITY": "CC50", "UNIT_STRING": "µM", "VALUE_QUALIFIER": ">", "DATA_VALUE": 75}
{"SAMPLE_SMILES": "C#Cc1csc(-c2cc(O[C@H]3C[C@H]4C(=O)N(C)CCCC/C=C/[C@@H]5C[C@@]5(C(=O)NS(=O)(=O)C5CC5)NC(=O)N4C3)c3ccc(OC)c(C)c3n2)n1", "QUANTITY": "CC50", "UNIT_STRING": "µM", "VALUE_QUALIFIER": "=", "DATA_VALUE": 14.4}
{"SAMPLE_SMILES": "COc1ccc2c(O[C@H]3C[C@H]4C(=O)N(C)CCCC/C=C/[C@@H]5C[C@@]5(C(=O)NS(=O)(=O)C5(C)CC5)NC(=O)N4C3)cc(C#N)nc2c1C", "QUANTITY": "CC50", "UNIT_STRING": "µM", "VALUE_QUALIFIER": "=", "DATA_VALUE": 55.8}
{"SAMPLE_SMILES": "COc1ccc2c(O[C@H]3C[C@H]4C(=O)N(C)CCCC/C=C/[C@@H]5C[C@@]5(C(=O)NS(=O)(=O)C5(C)CC5)NC(=O)N4C3)cc(-c3csc(C(C)C)n3)nc2c1Cl", "QUANTITY": "CC50", "UNIT_STRING": "µM", "VALUE_QUALIFIER": "=", "DATA_VALUE": 30.2}
{"SAMPLE_SMILES": "COc1ccc2c(O[C@H]3C[C@H]4C(=O)N(C)CCCC/C=C/[C@@H]5C[C@@]5(C(=O)NS(=O)(=O)C5(C)CC5)NC(=O)N4C3)cc(-n3cc(C(C)C)cn3)nc2c1C", "QUANTITY": "CC50", "UNIT_STRING": "µM", "VALUE_QUALIFIER": "=", "DATA_VALUE": 9.61}
{"SAMPLE_SMILES": "COc1ccc2c(O[C@H]3CCN4C(=O)N(C)CCCC/C=C/[C@@H]5C[C@@]5(C(=O)NS(=O)(=O)C5CC5)NC(=O)[C@@H]4C3)cc(-c3nc(C(F)(F)F)cs3)nc2c1C", "QUANTITY": "CC50", "UNIT_STRING": "µM", "VALUE_QUALIFIER": ">", "DATA_VALUE": 75}
{"SAMPLE_SMILES": "COc1ccc2c(O[C@H]3C[C@H]4C(=O)N(C)CCCC/C=C/[C@@H]5C[C@@]5(C(=O)NS(=O)(=O)C5CC5)NC(=O)N4C3)cc(-c3noc(C)n3)nc2c1C", "QUANTITY": "CC50", "UNIT_STRING": "µM", "VALUE_QUALIFIER": "=", "DATA_VALUE": 75}

---

Test system: Hepatitis C virus
Assay: Antiviral activity against HCV genotype 1b infected in human HuH7 cells after 3 days by luciferase assay
Assay type: functional, organism-based, Hepacivirus hominis
Conditions: Huh-7, 72 h
pEC50: −log10 of the molar value.
QUANTITY: pEC50

{"SAMPLE_SMILES": "COc1ccc2c(O[C@H]3C[C@H]4C(=O)N(C)CCCC/C=C/[C@@H]5C[C@@]5(C(=O)NS(=O)(=O)C5(C)CC5)NC(=O)N4C3)cc(-n3cc(C(C)C)nn3)nc2c1Cl", "DATA_VALUE": 6.23}
{"SAMPLE_SMILES": "C=Cc1csc(-c2cc(O[C@H]3C[C@H]4C(=O)N(C)CCCC/C=C/[C@@H]5C[C@@]5(C(=O)NS(=O)(=O)C5(C)CC5)NC(=O)N4C3)c3ccc(OC)c(Cl)c3n2)n1", "DATA_VALUE": 8.40}
{"SAMPLE_SMILES": "COc1ccc2c(O[C@H]3C[C@H]4C(=O)N(C)CCCC/C=C/[C@@H]5C[C@@]5(C(=O)NS(=O)(=O)C5(C)CC5)NC(=O)N4C3)cc(-n3cc(C(F)(F)F)cn3)nc2c1Cl", "DATA_VALUE": 7.57}
{"SAMPLE_SMILES": "C#Cc1csc(-c2cc(O[C@H]3C[C@H]4C(=O)N(C)CCCC/C=C/[C@@H]5C[C@@]5(C(=O)NS(=O)(=O)C5(C)CC5)NC(=O)N4C3)c3ccc(OC)c(C)c3n2)n1", "DATA_VALUE": 8.57}
{"SAMPLE_SMILES": "COc1ccc2c(O[C@H]3C[C@H]4C(=O)N(C)CCCC/C=C/[C@@H]5C[C@@]5(C(=O)NS(=O)(=O)C5(C)CC5)NC(=O)N4C3)cc(-c3nc(C(C)C)cs3)nc2c1C", "DATA_VALUE": 7.14}

---

Experiment: Half life in Sprague-Dawley rat at 10 mg/kg, po administered as single dose
Assay type: ADME, organism-based
Conditions: in vivo
Each item that follows carries a reported half-life.
QUANTITY: half-life (h)

{"SAMPLE_SMILES": "COc1ccc2c(O[C@H]3CCN4C(=O)N(C)CCCCC=C[C@@H]5C[C@@]5(C(=O)NS(=O)(=O)C5(C)CC5)NC(=O)[C@@H]4C3)cc(-c3nc(C(F)(F)F)cs3)nc2c1C", "DATA_VALUE": 3.6}
{"SAMPLE_SMILES": "COc1ccc2c(O[C@H]3C[C@H]4C(=O)N(C)CCCC/C=C/[C@@H]5C[C@@]5(C(=O)NS(=O)(=O)C5(C)CC5)NC(=O)N4C3)cc(-c3nc(C(F)(F)F)cs3)nc2c1C", "DATA_VALUE": 5.2}
